# Test system: GeneBLAzer FXR-UAS-bla HEK 293T cells
# Measurement Parameters: human, 16 h, 40 μM
Test Readout: GB FXR Cell Cyto % Inh. (%)

These solved cases illustrate the format of a correct answer.
molecule=Cc1ccc(-c2nn(-c3cccc(C(F)(F)F)c3)cc2C(=O)Nc2ccc(C)c(S(=O)(=O)N3CCOCC3)c2)cc1 experimental_system="GeneBLAzer FXR-UAS-bla HEK 293T cells" test_readout="GB FXR Cell Cyto % Inh." output_unit=% measured_result=7.3
molecule=Cc1ccc(NC(=O)c2cn(C(C)C)nc2-c2ccc(C(F)(F)F)cc2)cc1S(=O)(=O)N1CCOCC1 experimental_system="GeneBLAzer FXR-UAS-bla HEK 293T cells" test_readout="GB FXR Cell Cyto % Inh." output_unit=% measured_result=19.5
molecule="Cc1ccc(-c2nn(-c3ccccc3)cc2C(=O)Nc2ccc(C)c(S(=O)(=O)N3CCOCC3)c2)cc1 [Compound Z26476908, reference compound]" experimental_system="GeneBLAzer FXR-UAS-bla HEK 293T cells" test_readout="GB FXR Cell Cyto % Inh." output_unit=% measured_result=17.9
molecule=Cc1ccc(-c2nn(C(C)C)cc2CNc2ccc(C)c(S(=O)(=O)N3CCOCC3)c2)cc1 experimental_system="GeneBLAzer FXR-UAS-bla HEK 293T cells" test_readout="GB FXR Cell Cyto % Inh." output_unit=% measured_result=10.5
molecule=Cc1ccc(-c2nn(C(C)C)cc2C(=O)N(C)c2ccc(C)c(S(=O)(=O)N3CCOCC3)c2)cc1 experimental_system="GeneBLAzer FXR-UAS-bla HEK 293T cells" test_readout="GB FXR Cell Cyto % Inh." output_unit=% measured_result=15.0

[P] Cc1ccc(-c2nn(-c3ccc(F)cc3)cc2C(=O)Nc2ccc(C)c(S(=O)(=O)N3CCOCC3)c2)cc1
[Q] Cc1ccc(-c2nn(CCCCO)cc2C(=O)Nc2ccc(C)c(S(=O)(=O)N3CCOCC3)c2)cc1
Which of the two gives a bigger number for GB FXR Cell Cyto % Inh.: P or Q ? Select an item and report its label.
P
(P: 18.5%, Q: 5.9%)
